Readings of pIC50 for the listed compounds
Target: human α1H T-type channels (Homo sapiens)
Construct: expressed in transfected cells; host or cells: HEK 293
Sequence (O95180 whole entry): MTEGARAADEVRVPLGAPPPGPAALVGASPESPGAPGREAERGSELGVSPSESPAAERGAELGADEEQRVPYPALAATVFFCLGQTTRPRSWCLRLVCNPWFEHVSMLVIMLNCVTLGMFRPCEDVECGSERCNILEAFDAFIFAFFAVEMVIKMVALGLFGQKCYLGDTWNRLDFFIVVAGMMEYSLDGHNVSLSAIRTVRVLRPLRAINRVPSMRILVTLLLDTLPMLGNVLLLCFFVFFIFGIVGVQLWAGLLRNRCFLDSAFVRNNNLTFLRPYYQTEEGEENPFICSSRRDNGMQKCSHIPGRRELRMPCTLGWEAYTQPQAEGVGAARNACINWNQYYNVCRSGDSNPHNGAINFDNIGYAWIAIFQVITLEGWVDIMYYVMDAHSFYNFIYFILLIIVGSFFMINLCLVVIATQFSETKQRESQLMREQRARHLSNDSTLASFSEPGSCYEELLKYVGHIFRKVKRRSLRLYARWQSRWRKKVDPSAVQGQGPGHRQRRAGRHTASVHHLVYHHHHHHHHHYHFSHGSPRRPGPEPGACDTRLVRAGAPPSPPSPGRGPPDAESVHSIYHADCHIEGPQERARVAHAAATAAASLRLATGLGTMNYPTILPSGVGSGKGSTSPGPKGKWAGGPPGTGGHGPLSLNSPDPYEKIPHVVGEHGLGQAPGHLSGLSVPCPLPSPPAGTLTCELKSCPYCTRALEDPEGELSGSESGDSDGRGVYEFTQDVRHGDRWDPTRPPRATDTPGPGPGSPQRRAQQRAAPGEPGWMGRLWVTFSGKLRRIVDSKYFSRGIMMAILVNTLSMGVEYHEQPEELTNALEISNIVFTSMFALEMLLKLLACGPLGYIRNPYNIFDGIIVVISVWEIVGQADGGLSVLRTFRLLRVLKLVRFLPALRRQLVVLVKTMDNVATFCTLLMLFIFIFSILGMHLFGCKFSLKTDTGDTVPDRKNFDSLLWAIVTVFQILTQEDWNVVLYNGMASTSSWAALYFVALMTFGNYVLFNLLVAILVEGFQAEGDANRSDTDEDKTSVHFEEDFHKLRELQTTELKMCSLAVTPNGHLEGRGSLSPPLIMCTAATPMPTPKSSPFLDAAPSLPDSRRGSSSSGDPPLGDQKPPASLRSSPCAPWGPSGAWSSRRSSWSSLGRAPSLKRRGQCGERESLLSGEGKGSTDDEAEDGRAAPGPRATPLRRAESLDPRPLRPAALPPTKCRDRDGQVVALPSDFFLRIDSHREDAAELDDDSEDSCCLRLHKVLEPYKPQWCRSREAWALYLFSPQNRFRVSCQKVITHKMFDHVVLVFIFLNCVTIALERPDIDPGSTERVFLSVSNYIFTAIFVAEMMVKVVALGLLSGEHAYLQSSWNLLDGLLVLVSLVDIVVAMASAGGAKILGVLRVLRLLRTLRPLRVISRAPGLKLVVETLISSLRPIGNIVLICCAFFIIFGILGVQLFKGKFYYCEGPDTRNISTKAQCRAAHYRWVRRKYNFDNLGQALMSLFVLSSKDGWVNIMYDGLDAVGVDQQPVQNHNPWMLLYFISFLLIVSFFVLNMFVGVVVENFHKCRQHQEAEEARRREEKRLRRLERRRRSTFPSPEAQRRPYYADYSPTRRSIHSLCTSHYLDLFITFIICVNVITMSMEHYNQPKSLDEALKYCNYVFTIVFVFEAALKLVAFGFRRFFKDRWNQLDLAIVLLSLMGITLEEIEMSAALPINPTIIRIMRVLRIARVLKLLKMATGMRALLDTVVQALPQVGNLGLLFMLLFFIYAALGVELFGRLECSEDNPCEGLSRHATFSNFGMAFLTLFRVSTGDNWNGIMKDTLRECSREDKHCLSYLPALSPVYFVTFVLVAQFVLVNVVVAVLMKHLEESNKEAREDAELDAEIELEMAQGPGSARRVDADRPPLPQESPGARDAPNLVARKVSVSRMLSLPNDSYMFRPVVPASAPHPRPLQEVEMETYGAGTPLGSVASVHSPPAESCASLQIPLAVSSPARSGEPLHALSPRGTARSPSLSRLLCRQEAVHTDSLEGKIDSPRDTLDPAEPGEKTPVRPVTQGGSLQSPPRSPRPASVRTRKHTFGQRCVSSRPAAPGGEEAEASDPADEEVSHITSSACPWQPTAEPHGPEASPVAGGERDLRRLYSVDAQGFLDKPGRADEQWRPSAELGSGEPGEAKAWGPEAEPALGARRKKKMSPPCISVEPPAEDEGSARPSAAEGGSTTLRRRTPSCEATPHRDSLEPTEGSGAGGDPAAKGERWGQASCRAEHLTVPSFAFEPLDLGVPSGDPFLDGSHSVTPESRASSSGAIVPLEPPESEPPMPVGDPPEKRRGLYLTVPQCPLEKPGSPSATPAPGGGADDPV
Assay: T-type calcium channel block, whole cell patch clamp (α1H)
Assay type: cell-based
Details: HEK cells stably expressing human α1H; mainly non-inactivated protocol; values above 10 μM represented as 10 μM
Experimental: T-type calcium channel blocking activity was assayed in human embryonic kidney cells, HEK 293, stably transfected with the T-type calcium channel subunits. […] Standard patch-clamp techniques were employed to identify blockers of T-type currents. […] Data were analyzed using Clampfit (Axon Instruments) and SigmaPlot 4.0 (Jandel Scientific). […]
pIC50: −log10 of the molar value.
attribute measured: pIC50

- compound: "COc1ccc(CN[C@H]2CC[C@@H](CC(=O)Nc3nc(-c4ccc(C)cc4)cs3)CC2)c(O)c1 [Compound 36]"
  attribute measured: "pIC50"
  cmp: "≤"
  result value: 5.00
- compound: "COc1ccc(CN[C@H]2CC[C@H](CNC(=O)c3cc(C(F)(F)F)cc(C(F)(F)F)c3)CC2)c(OC)c1 [Compound 35]"
  attribute measured: "pIC50"
  cmp: "="
  result value: 6.11
- compound: "O=C(NC[C@H]1CC[C@H](NCc2c(O)cccc2F)CC1)c1cc(C(F)(F)F)cc(C(F)(F)F)c1 [Compound 32]"
  attribute measured: "pIC50"
  cmp: "="
  result value: 5.46
- compound: "CC(C)(C)NC(=O)CN[C@H]1CC[C@H](CNC(=O)c2cccc(OC(F)(F)F)c2)CC1 [Compound 189]"
  attribute measured: "pIC50"
  cmp: "="
  result value: 5.78
- compound: "COc1cc(F)cc(C(=O)NC[C@H]2CC[C@H](NCC(=O)NC3(C)CCC3)CC2)c1 [Compound 207]"
  attribute measured: "pIC50"
  cmp: "="
  result value: 6.04
- compound: "Cc1cccc(CN[C@H]2CC[C@@H](CNC(=O)c3cc(F)cc(C(F)(F)F)c3)CC2)c1O [Compound 18]"
  attribute measured: "pIC50"
  cmp: "="
  result value: 5.86
- compound: "COc1cc(F)cc(C(=O)NC[C@H]2CC[C@@H](NCC(=O)N3CCOCC3(C)C)CC2)c1 [Compound 198]"
  attribute measured: "pIC50"
  cmp: "="
  result value: 6.20
- compound: "CC(C)(C)C(O)CN[C@H]1CC[C@@H](CNC(=O)c2cc(F)cc(C(F)(F)F)c2)CC1 (some centres unmarked) [Compound 2]"
  attribute measured: "pIC50"
  cmp: "="
  result value: 6.26
- compound: "CC1(C)CCCN1C(=O)CN[C@H]1CC[C@H](CNC(=O)c2cc(F)cc(Cl)c2)CC1 [Compound 204]"
  attribute measured: "pIC50"
  cmp: "="
  result value: 6.19
- compound: "O=C(NC[C@H]1CC[C@@H](NCc2c(O)cccc2F)CC1)c1cc(F)cc(C(F)(F)F)c1 [Compound 22]"
  attribute measured: "pIC50"
  cmp: "="
  result value: 5.51
- compound: "CCC1CCCN1C(=O)CN[C@H]1CC[C@H](CNC(=O)c2cc(C(F)(F)F)cc(C(F)(F)F)c2)CC1 (some centres unmarked) [Compound 68]"
  attribute measured: "pIC50"
  cmp: "="
  result value: 6.25
- compound: "O=C(NC[C@H]1CC[C@@H](NCc2ccccc2O)CC1)c1cc(F)cc(C(F)(F)F)c1 [Compound 15]"
  attribute measured: "pIC50"
  cmp: "="
  result value: 5.78
- compound: "Cc1cc(CN[C@H]2CC[C@@H](CNC(=O)c3cc(F)cc(C(F)(F)F)c3)CC2)cc(C)c1O [Compound 5]"
  attribute measured: "pIC50"
  cmp: "="
  result value: 6.60
- compound: "Cc1ccc(NC(=O)CN[C@H]2CC[C@H](CNC(=O)c3cc(C(F)(F)F)cc(C(F)(F)F)c3)CC2)nc1 [Compound 77]"
  attribute measured: "pIC50"
  cmp: "="
  result value: 5.94
- compound: "COc1ccccc1CN[C@H]1CC[C@@H](CNC(=O)c2cc(C(F)(F)F)cc(C(F)(F)F)c2)CC1 [Compound 10]"
  attribute measured: "pIC50"
  cmp: "="
  result value: 6.49
- compound: "O=C(NC[C@H]1CC[C@@H](NC(=O)[C@@H]2CC[C@H](c3ccccc3)N2)CC1)c1cc(C(F)(F)F)cc(C(F)(F)F)c1 [Compound 127]"
  attribute measured: "pIC50"
  cmp: "="
  result value: 5.31
- compound: "CC(C)CNC(=O)CN[C@H]1CC[C@H](CNC(=O)c2cc(C(F)(F)F)cc(C(F)(F)F)c2)CC1 [Compound 75]"
  attribute measured: "pIC50"
  cmp: "="
  result value: 6.37
- compound: "CC1(NC(=O)CN[C@H]2CC[C@H](CNC(=O)c3cccc(OC(F)(F)F)c3)CC2)CCC1 [Compound 190]"
  attribute measured: "pIC50"
  cmp: "="
  result value: 6.21
- compound: "O=C(NC[C@H]1CC[C@H](NCc2cccc(F)c2O)CC1)c1cc(C(F)(F)F)cc(C(F)(F)F)c1 [Compound 31]"
  attribute measured: "pIC50"
  cmp: "="
  result value: 5.61
- compound: "Cc1cc(CN[C@H]2CC[C@H](CNC(=O)c3cc(C(F)(F)F)cc(C(F)(F)F)c3)CC2)no1 [Compound 67]"
  attribute measured: "pIC50"
  cmp: "="
  result value: 5.54
- compound: "CCC1CCCN1C(=O)CN[C@H]1CC[C@@H](CNC(=O)c2cc(C(F)(F)F)cc(C(F)(F)F)c2)CC1 (some centres unmarked) [Compound 54]"
  attribute measured: "pIC50"
  cmp: "="
  result value: 6.68
- compound: "NC1(C(=O)N[C@H]2CC[C@H](CC(=O)Nc3cc(C(F)(F)F)cc(C(F)(F)F)c3)CC2)CCCC1 [Compound 124]"
  attribute measured: "pIC50"
  cmp: "≤"
  result value: 5.00
- compound: "CN(C(=O)CN[C@H]1CC[C@@H](CNC(=O)c2cc(C(F)(F)F)cc(C(F)(F)F)c2)CC1)C1CCCC1 [Compound 44]"
  attribute measured: "pIC50"
  cmp: "="
  result value: 6.59
- compound: "COC1CCC(N(C)C(=O)CN[C@H]2CC[C@@H](CNC(=O)c3cc(C(F)(F)F)cc(C(F)(F)F)c3)CC2)CC1 (some centres unmarked) [Compound 50]"
  attribute measured: "pIC50"
  cmp: "="
  result value: 5.61
- compound: "CC1CCCCN1C(=O)CN[C@H]1CC[C@H](CNC(=O)c2cc(C(F)(F)F)cc(C(F)(F)F)c2)CC1 (some centres unmarked) [Compound 76]"
  attribute measured: "pIC50"
  cmp: "="
  result value: 6.21
- compound: "CC(C)(C)c1nc(CN[C@H]2CC[C@@H](CNC(=O)c3cc(C(F)(F)F)cc(C(F)(F)F)c3)CC2)no1 [Compound 51]"
  attribute measured: "pIC50"
  cmp: "="
  result value: 6.09
- compound: "O=C(NC[C@H]1CC[C@H](NCc2ccccc2O)CC1)c1cc(C(F)(F)F)cc(C(F)(F)F)c1 [Compound 25]"
  attribute measured: "pIC50"
  cmp: "="
  result value: 5.61
- compound: "O=C(CC1CC1)NCCN[C@H]1CC[C@H](CNC(=O)c2cc(C(F)(F)F)cc(C(F)(F)F)c2)CC1 [Compound 103]"
  attribute measured: "pIC50"
  cmp: "="
  result value: 5.68
- compound: "CN(C(=O)CN[C@H]1CC[C@H](CNC(=O)c2cc(F)cc(Cl)c2)CC1)C1(C)CCC1 [Compound 211]"
  attribute measured: "pIC50"
  cmp: "="
  result value: 6.27
